Entries annotated with measured Ki
Biological target: human cathepsin K (Homo sapiens, UniProt P43235)
Construct: The proform of cathepsin K was converted to mature cathepsin K by brief exposure to pH 4; made in house; host or cells: baculovirus; Trichoplusia ni High Five cells (virus raised in Sf-9)
Sequence (P43235 115-329): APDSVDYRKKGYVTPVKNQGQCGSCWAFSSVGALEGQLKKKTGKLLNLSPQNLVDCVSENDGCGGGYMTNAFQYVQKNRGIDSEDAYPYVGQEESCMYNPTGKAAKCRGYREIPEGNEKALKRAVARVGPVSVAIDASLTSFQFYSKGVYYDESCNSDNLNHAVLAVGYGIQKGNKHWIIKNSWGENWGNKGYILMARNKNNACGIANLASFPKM
Test: Cathepsin K inhibition assay, fluorogenic substrate Cbz-Phe-Arg-AMC, progress curve method
Assay type: biochemical
Details: Table 2; human recombinant enzyme, pH 5.5, 30° C., 10 μM substrate; read-out: hCat K Ki
Experimental: All assays for cathepsin K were carried out with human and rat recombinant enzyme. Assays for cathepsins S Et V were also carried out with human recombinant enzyme. […] All assays contained 10% dimethyl sulfoxide. […] Product fluorescence (excitation at 360 nm; emission at 440 nm, (except cathepsin H which used excitation at 340 nm; emission at 420 nm)) was monitored with a PerSeptive Biosystems Cytofluor II fluorescence plate reader. […] Potential inhibitors were evaluated using the progress curve method. […]

Write down Ki measured for item `CCCC[C@H](NC(=O)O[C@H](Cn1cnc2cc(Cl)c(Cl)cc21)C(C)(C)C)C(=O)C(=O)Nc1ccn[nH]1`
0.01 to 1 nM

Write down Ki measured for item `CCCC[C@H](NC(=O)O[C@H](Cn1cnc(-c2ccc(C(F)(F)F)cc2)c1)C(C)(C)C)C(=O)C(=O)Nc1ccnn1C1CCC1`
1 to 100 nM

Write down Ki measured for item `CCCC[C@H](NC(=O)O[C@H](c1nnc(-c2ccc(C(F)(F)F)cc2)o1)C(C)(C)C)C(=O)C(=O)Nc1ccn[nH]1`
0.01 to 1 nM

These measurements were taken from patent US20050107616A1.
